target entity: Human HDAC4 (Homo sapiens, UniProt P56524)
Construct: amino acids 627-1085 with N-terminal GST tag; GST (N); host or cells: baculovirus expression system
Sequence (P56524 627-1084 limits assumed): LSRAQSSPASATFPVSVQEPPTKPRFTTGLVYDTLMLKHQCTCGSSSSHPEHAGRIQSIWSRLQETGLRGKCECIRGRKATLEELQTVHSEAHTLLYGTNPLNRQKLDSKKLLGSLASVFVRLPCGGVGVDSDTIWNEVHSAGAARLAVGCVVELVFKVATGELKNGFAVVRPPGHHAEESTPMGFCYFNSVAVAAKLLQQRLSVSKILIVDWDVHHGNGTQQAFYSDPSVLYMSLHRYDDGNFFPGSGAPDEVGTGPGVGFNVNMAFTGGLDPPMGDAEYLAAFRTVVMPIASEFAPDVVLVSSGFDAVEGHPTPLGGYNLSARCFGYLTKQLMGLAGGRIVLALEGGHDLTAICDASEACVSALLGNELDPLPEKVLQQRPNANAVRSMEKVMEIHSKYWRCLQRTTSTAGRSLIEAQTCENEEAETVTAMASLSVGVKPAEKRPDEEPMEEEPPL
assay overview: HDAC4 biochemical assay, class IIa-specific substrate
condition description: read-out: HDAC Isoform IC50 (nM) 4
Protocol: Activity against all zinc-dependent HDACs 1 to 11 was assessed by using an acetylated AMC-labeled peptide substrate. The substrate RHKK(Ac)AMC was used for HDAC1, HDAC2, HDAC3, HDAC6 and HDAC10; the substrate used for HDAC8 was RHK(Ac)K(Ac)AMC. Activity against the class IIa HDACs (HDAC4, 5, 7, 9) and HDAC11 was determined using a class IIa-specific substrate, BOC-Lys(trifluoroacetyl)-AMC (“Trifluoroacetyl Lysine”; see Lahm et al, 2007, PNAS, 104, 17335-17340). […]
measurement name: IC50

input: Entry FC(F)(F)c1cc(N(Cc2ccc(-c3noc(C(F)(F)F)n3)s2)c2cnccn2)ncn1 [Example CJ] : reported IC50 = ?
output: ≤ 10000 nM

input: // query: Cc1ccnc(N(Cc2ccc(-c3noc(C(F)(F)F)n3)s2)c2cnccn2)n1 [Example AT]
output: ≤ 10000 nM

* * *

target entity: Human HDAC5 (Homo sapiens)
Construct: full length with C-terminal His tag, MW=51.1 kDa; His (C); host or cells: baculovirus expression system
Sequence (Q9UQL6 656-1122 limits assumed): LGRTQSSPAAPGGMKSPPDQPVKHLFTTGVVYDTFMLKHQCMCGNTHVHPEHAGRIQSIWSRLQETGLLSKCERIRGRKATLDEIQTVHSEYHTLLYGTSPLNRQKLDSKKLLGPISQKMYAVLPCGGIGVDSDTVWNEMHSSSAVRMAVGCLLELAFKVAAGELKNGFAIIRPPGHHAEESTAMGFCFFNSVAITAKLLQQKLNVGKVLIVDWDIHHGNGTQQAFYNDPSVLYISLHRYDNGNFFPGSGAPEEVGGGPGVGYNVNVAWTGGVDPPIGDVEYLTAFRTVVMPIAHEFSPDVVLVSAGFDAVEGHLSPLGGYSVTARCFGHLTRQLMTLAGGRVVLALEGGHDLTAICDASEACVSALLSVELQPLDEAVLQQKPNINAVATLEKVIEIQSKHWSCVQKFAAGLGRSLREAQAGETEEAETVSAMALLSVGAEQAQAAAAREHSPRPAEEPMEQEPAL
assay overview: HDAC5 biochemical assay, class IIa-specific substrate
condition description: read-out: HDAC Isoform IC50 (nM) 5
measurement name: IC50

Some compounds with known IC50 results, for comparison:
mol=CN1CCN(c2ccc(N(Cc3ccc(-c4noc(C(F)(F)F)n4)s3)c3cnccn3)nn2)CC1 target_entity="Human HDAC5 (Homo sapiens)" measurement_name=IC50 measured_result="≤ 500 nM"
mol=O=C(c1cnnc(N(Cc2ccc(-c3noc(C(F)(F)F)n3)s2)c2cnccn2)c1)N1CCS(=O)(=O)CC1 target_entity="Human HDAC5 (Homo sapiens)" measurement_name=IC50 measured_result="≤ 1000 nM"
mol=CN(C(=O)c1cnnc(N(Cc2ccc(-c3noc(C(F)(F)F)n3)s2)c2cnccn2)c1)S(C)(=O)=O target_entity="Human HDAC5 (Homo sapiens)" measurement_name=IC50 measured_result="≤ 1000 nM"

input: Entry FC(F)(F)c1ccc(N(Cc2ccc(-c3noc(C(F)(F)F)n3)s2)c2cnccn2)nc1 : reported IC50 = ?
output: ≤ 10000 nM

* * *

target entity: Human HDAC7 (Homo sapiens)
Construct: (a.a. 518-end) with N-terminal GST tag; GST (N); host or cells: baculovirus expression system
Sequence (Q8WUI4 518-952 limits assumed): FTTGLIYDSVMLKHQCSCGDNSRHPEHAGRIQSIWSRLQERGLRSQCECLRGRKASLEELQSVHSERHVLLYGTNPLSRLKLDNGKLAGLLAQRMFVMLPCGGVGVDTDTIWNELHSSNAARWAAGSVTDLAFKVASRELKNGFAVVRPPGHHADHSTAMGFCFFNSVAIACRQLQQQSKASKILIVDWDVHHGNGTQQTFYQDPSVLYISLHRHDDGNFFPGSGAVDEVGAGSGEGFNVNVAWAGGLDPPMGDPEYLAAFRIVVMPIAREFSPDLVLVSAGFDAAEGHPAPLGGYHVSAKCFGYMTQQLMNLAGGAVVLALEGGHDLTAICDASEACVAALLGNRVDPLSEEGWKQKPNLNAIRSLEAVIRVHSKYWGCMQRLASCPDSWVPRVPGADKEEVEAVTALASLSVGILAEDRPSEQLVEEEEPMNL
assay overview: HDAC7 biochemical assay, class IIa-specific substrate
condition description: read-out: HDAC Isoform IC50 (nM) 7
Procedure: Activity against all zinc-dependent HDACs 1 to 11 was assessed by using an acetylated AMC-labeled peptide substrate. The substrate RHKK(Ac)AMC was used for HDAC1, HDAC2, HDAC3, HDAC6 and HDAC10; the substrate used for HDAC8 was RHK(Ac)K(Ac)AMC. Activity against the class IIa HDACs (HDAC4, 5, 7, 9) and HDAC11 was determined using a class IIa-specific substrate, BOC-Lys(trifluoroacetyl)-AMC (“Trifluoroacetyl Lysine”; see Lahm et al, 2007, PNAS, 104, 17335-17340). […]
measurement name: IC50

input: Entry COc1cncc(N(Cc2ccc(-c3noc(C(F)(F)F)n3)s2)c2cncc(OC)n2)n1 : reported IC50 = ?
output: ≤ 10000 nM

input: // query: COC1CN(C(=O)c2cnnc(N(Cc3ccc(-c4noc(C(F)(F)F)n4)s3)c3cnccn3)c2)C1
output: ≤ 1000 nM

input: // query: [O-][S+]1CCN(Cc2ccc(N(Cc3ccc(-c4noc(C(F)(F)F)n4)s3)c3cnccn3)nn2)CC1
output: ≤ 1000 nM

input: // query: FC(F)(F)c1cc(N(Cc2ccc(-c3noc(C(F)(F)F)n3)s2)c2cnccn2)ncn1
output: ≤ 10000 nM

input: // query: FC(F)(F)c1nccc(N(Cc2ccc(-c3noc(C(F)(F)F)n3)s2)c2cnccn2)n1
output: ≤ 1000 nM

input: // query: FC(F)(F)c1nc(-c2ccc(CN(c3cnccn3)c3nccc4cnccc34)s2)no1
output: ≤ 500 nM

input: // query: CNC(=O)c1cnnc(N(Cc2ccc(-c3noc(C(F)(F)F)n3)s2)c2cnccn2)c1
output: ≤ 500 nM

* * *

Below, each of the compounds is paired with its reported IC50 value.
target entity: Recombinant human HDAC6 (Homo sapiens)
Construct: full length, MW=159 kDa; GST (N); host or cells: Sf9 insect cells (baculovirus)
Sequence (Q9UBN7 whole entry): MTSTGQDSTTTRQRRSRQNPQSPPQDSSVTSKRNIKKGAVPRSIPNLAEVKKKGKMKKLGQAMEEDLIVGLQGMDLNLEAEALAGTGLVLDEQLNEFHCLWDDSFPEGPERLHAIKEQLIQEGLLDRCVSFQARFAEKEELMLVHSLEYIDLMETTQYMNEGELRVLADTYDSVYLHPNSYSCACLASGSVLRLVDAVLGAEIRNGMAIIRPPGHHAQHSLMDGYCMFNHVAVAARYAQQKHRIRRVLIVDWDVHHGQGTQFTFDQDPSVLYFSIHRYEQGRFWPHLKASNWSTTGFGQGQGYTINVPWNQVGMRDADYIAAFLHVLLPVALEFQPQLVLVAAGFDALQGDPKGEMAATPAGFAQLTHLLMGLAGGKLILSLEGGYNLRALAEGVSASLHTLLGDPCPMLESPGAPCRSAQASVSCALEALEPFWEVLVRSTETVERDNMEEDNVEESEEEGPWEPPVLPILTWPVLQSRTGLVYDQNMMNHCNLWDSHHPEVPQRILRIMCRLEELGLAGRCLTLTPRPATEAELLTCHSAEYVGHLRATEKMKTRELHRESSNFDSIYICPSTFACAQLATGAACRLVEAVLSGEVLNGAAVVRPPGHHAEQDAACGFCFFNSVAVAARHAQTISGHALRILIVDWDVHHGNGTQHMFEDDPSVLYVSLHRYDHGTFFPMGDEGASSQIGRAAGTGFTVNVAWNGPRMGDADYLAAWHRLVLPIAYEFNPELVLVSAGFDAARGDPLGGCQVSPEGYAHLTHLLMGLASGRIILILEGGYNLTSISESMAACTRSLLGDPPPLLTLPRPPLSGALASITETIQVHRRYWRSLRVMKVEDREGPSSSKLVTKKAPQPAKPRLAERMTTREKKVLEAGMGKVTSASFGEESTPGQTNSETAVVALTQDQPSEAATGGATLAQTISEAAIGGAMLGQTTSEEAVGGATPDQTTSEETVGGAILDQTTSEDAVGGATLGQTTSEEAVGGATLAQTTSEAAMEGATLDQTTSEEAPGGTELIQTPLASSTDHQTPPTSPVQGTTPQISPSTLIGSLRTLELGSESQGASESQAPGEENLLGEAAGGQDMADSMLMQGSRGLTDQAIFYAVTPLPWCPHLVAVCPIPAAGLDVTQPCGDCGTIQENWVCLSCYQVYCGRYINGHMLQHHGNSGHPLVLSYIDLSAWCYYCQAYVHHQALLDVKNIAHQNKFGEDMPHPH
assay overview: HDAC6 biochemical assay, AMC-labeled peptide substrate
condition description: HDAC6; read-out: HDAC Isoform IC50 (nM) 6

Some compounds with known IC50 results, for comparison:
mol=O=C(c1ccc(N(Cc2ccc(-c3noc(C(F)(F)F)n3)s2)c2cnccn2)nn1)N1CC[S+]([O-])CC1 measured_result="≤ 500 nM"
mol=COc1nccc(N(Cc2ccc(-c3noc(C(F)(F)F)n3)s2)c2cnccn2)n1 measured_result="≤ 1000 nM"

input: Entry Cc1cnnc(N(Cc2ccc(-c3noc(C(F)(F)F)n3)s2)c2cnccn2)c1 : reported IC50 = ?
output: ≤ 500 nM

input: // query: FC(F)(F)c1nc(-c2ccc(CN(c3cnccn3)c3ccc4nncn4n3)s2)no1
output: ≤ 10000 nM

input: // query: Fc1cnc(N(Cc2ccc(-c3noc(C(F)(F)F)n3)s2)c2cnccn2)nc1
output: ≤ 10000 nM

* * *

target entity: Human HDAC5 (Homo sapiens)
Construct: full length with C-terminal His tag, MW=51.1 kDa; His (C); host or cells: baculovirus expression system
assay overview: HDAC5 biochemical assay, class IIa-specific substrate
condition description: read-out: HDAC Isoform IC50 (nM) 5
Below, each of the compounds is paired with its reported IC50 value.

compound="O=C(c1nccnc1N(Cc1ccc(-c2noc(C(F)(F)F)n2)s1)c1cnccn1)N1CC(O)(C(F)(F)F)C1 [Example GQ]" target_entity="Human HDAC5 (Homo sapiens)" measured_result="≤ 10000 nM"

input: Entry CS(=O)(=O)c1ncc(N(Cc2ccc(-c3noc(C(F)(F)F)n3)s2)c2cnccn2)cn1 [Example CW] : reported IC50 = ?
output: ≤ 500 nM

input: // query: FC(F)(F)c1cnnc(N(Cc2ccc(-c3noc(C(F)(F)F)n3)s2)c2cccnn2)c1 [Example ER]
output: ≤ 10000 nM

input: // query: COc1cnnc(N(Cc2ccc(-c3noc(C(F)(F)F)n3)s2)c2cnccn2)c1 [Example DV]
output: ≤ 1000 nM

* * *

target entity: Human HDAC4 (Homo sapiens)
Construct: amino acids 627-1085 with N-terminal GST tag; GST (N); host or cells: baculovirus expression system
assay overview: HDAC4 biochemical assay, class IIa-specific substrate
condition description: read-out: HDAC Isoform IC50 (nM) 4
measurement name: IC50

Some molecules with known IC50 results, for comparison:
mol=FC(F)(F)c1cnnc(N(Cc2ccc(-c3noc(C(F)(F)F)n3)s2)c2ccncc2)c1 measured_result="≤ 10000 nM"
mol=O=C(O)c1ccc(N(Cc2ccc(-c3noc(C(F)(F)F)n3)s2)c2cnccn2)nn1 measured_result="≤ 10000 nM"
mol=FC(F)(F)c1nc(-c2ccc(CN(c3cncnc3)c3cnccn3)s2)no1 measured_result="≤ 500 nM"
mol=Fc1ccnc(N(Cc2ccc(-c3noc(C(F)(F)F)n3)s2)c2cnccn2)c1 measured_result="≤ 10000 nM"
mol=CN(C)C(=O)c1ccc(N(Cc2ccc(-c3noc(C(F)(F)F)n3)s2)c2cnccn2)nc1 measured_result="≤ 1000 nM"

input: Entry O=C(c1ccc(N(Cc2ccc(-c3noc(C(F)(F)F)n3)s2)c2cnccn2)nn1)N1CCOCC1 : reported IC50 = ?
output: ≤ 500 nM

input: // query: FC(F)(F)c1cnnc(N(Cc2ccc(-c3noc(C(F)(F)F)n3)s2)c2ccccn2)c1
output: ≤ 10000 nM

input: // query: Cc1cnc(C)c(N(Cc2ccc(-c3noc(C(F)(F)F)n3)s2)c2cnccn2)n1
output: ≤ 500 nM

* * *

target entity: Human HDAC10 (Homo sapiens)
Construct: Human HDAC10 (a.a. 1-481); GST (N); His (C); host or cells: baculovirus expression system
Sequence (Q969S8 1-481): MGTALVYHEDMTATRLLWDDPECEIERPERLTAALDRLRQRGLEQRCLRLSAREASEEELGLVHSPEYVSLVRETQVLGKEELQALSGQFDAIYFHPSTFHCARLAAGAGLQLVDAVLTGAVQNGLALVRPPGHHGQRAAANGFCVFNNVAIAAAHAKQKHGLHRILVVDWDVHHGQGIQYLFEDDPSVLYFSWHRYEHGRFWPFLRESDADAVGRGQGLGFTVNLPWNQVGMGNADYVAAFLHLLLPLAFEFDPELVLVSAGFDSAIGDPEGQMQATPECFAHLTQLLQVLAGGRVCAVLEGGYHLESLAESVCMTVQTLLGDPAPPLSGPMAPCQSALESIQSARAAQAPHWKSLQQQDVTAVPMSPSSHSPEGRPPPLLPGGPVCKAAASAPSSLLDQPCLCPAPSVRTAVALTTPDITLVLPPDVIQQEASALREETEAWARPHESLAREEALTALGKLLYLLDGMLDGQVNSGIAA
assay overview: HDAC10 biochemical assay, AMC-labeled peptide substrate
condition description: read-out: HDAC Isoform IC50 (nM) 10
Below, each of the compounds is paired with its reported IC50 value.

mol=O=C(c1ccc(N(Cc2ccc(-c3noc(C(F)(F)F)n3)s2)c2cnccn2)nn1)N1C[C@@H]2C[C@H]1C[S@@+]2[O-] target_entity="Human HDAC10 (Homo sapiens)" measured_result="> 10000 nM"
mol=COc1cnc(N(Cc2ccc(-c3noc(C(F)(F)F)n3)s2)c2cnccn2)cn1 target_entity="Human HDAC10 (Homo sapiens)" measured_result="> 10000 nM"
mol=NC(=O)c1cnnc(N(Cc2ccc(-c3noc(C(F)(F)F)n3)s2)c2cnccn2)c1 target_entity="Human HDAC10 (Homo sapiens)" measured_result="> 10000 nM"
mol=COC1CN(Cc2ccnc(N(Cc3ccc(-c4noc(C(F)(F)F)n4)s3)c3cnccn3)c2)C1 target_entity="Human HDAC10 (Homo sapiens)" measured_result="> 10000 nM"
mol=Nc1cnnc(N(Cc2ccc(-c3noc(C(F)(F)F)n3)s2)c2cnccn2)c1 target_entity="Human HDAC10 (Homo sapiens)" measured_result="> 10000 nM"

input: Entry O=C(c1ccc(N(Cc2ccc(-c3noc(C(F)(F)F)n3)s2)c2cnccn2)nn1)N1CC[S+]([O-])CC1 : reported IC50 = ?
output: > 10000 nM

input: // query: O=C(c1ccc(N(Cc2ccc(-c3noc(C(F)(F)F)n3)s2)c2cnccn2)nn1)N1CCC1
output: > 10000 nM

input: // query: Cc1nccnc1N(Cc1ccc(-c2noc(C(F)(F)F)n2)s1)c1cnccn1
output: > 10000 nM

input: // query: O=C(c1ccc(N(Cc2ccc(-c3noc(C(F)(F)F)n3)s2)c2cnccn2)nn1)N1C[C@@H]2C[C@H]1CO2
output: > 10000 nM

input: // query: O=C(c1cnnc(N(Cc2ccc(-c3noc(C(F)(F)F)n3)s2)c2cnccn2)c1)N1CC[S+]([O-])CC1
output: > 10000 nM
